assay.info: Conversion of Hipp-Asp by purified HCPB mutants, 30 minutes, HPLC (Example 17)
Assay type: biochemical
condition.notes: enzyme 2.5 μg/ml; 0.5 mM substrate; 30 minutes at 37° C.
quantity.name: Hipp-Asp (% conversion) (%)
Hi! Could you send only the number? It should be in %, unit omitted.

Task: In one line, give reported Hipp-Asp (% conversion) of the entry [I201S, D253K]: HCPB mutant with I201S and D253K (protein, UniProt P15086 111-417, looked up, variant I201S D253K) Carboxypeptidase B: ATGHSYEKYNKWETIEAWTQQVATENPALISRSVIGTTFEGRAIYLLKVGKAGQNKPAIFMDCGFHAREWISPAFCQWFVREAVRTYGREIQVTELLDKLDFYVLPVLNIDGYIYTWTKSRFWRKTRSTHTGSSCIGTDPNRNFDAGWCEIGASRNPCDETYCGPAAESEKETKALADFIRNKLSSIKAYLTIHSYSQMMSYPYSYAYKLGENNAELNALAKATVKELASLHGTKYTYGPGATTIYPAAGGSKDWAYDQGIRYSFTFELRDTGRYGFLLPESQIRATCEETFLAIKYVASYVLEHLY .
Result: 5.8
